system: SW480; assay: Cytotoxicity of EA in tumor cell line SW480; assay type: cell-based; settings: Homo sapiens, mean of at least two experiments
Metric Name: pIC50
In textbook form, pIC50 equals minus log to base ten of the concentration in mol/L.

What does the record list as pIC50 for `C=C(CC)C(=O)c1ccc(OCC(=O)O)c(Cl)c1Cl` ? 4.17

----------
test system: Primary CLL cells; assay: Cell viability assay (MTT) with primary CLL cells; conditions: read-out: CLL Inhibition EC50; CLL survival; MTT, 48 hours
Below is a list of entries, each paired with its recorded EC50 value.
Report only the number, with the unit µM understood.

Use the examples below as a reference point.
| Smiles Record | Measurement Units | EC50 |
| --- | --- | --- |
| C=C(CC)C(=O)c1ccc(OCC(=O)Nc2ccc(C(=O)OC)cc2)c(Cl)c1Cl | µM | 4.1 |
| C=C(CC)C(=O)c1ccc(OCC(=O)Nc2ccc3c(c2)C(=O)c2ccccc2C3=O)c(Cl)c1Cl | µM | 2.1 |
| C=C(CC)C(=O)c1ccc(OCC(=O)NO)c(Cl)c1Cl | µM | 4.5 |
| C=C(CC)C(=O)c1ccc(OCC(=O)Nc2ccc(C=CC(=O)OCC)cc2)c(Cl)c1Cl | µM | 1.7 |
| C=C(CC)C(=O)c1ccc(OCC(=O)Nc2cc(OC)c(OC)cc2C(=O)O)c(Cl)c1Cl | µM | 21.9 |
| C=C(CC)C(=O)c1ccc(OCC(=O)Nc2ccc(Cl)c(C(=O)O)c2)c(Cl)c1Cl | µM | 15.9 |

What does the record list as EC50 for `C=C(CC)C(=O)c1ccc(OCC(=O)NC2CCN(CC(=O)OC)CC2)c(Cl)c1Cl` ? 10.6

----------
system: Wnt signaling; experiment: CellSensor LEF/TCF-bla SW480 cell-based assay (Wnt signaling inhibition); design: species or system human; details: LEF/TCF-bla SW480 cells, 20 hours
Metric Name: pIC50
In textbook form, pIC50 equals minus log to base ten of the concentration in mol/L.

Use the examples below as a reference point.
| Compound | pIC50 |
| --- | --- |
| C=C(CC)C(=O)c1ccc(OCC(=O)Nc2cccc(C(=O)O)c2)c(Cl)c1Cl [Compound 19] | 5.23 |
| C=C(CC)C(=O)c1ccc(OCC(=O)Nc2ccc(C(C)=O)cc2)c(Cl)c1Cl [Compound 28] | 5.30 |

Attention now shifts to the item below.
What does the record list as pIC50 for C=C(CC)C(=O)c1ccc(OCC(=O)Nc2cc(Cl)ccc2C(=O)O)c(Cl)c1Cl [Compound 10] ? 5.02

----------
Below is a list of entries, each paired with its recorded EC50 value.
system: Primary CLL cells; test: Cell viability assay (MTT) with primary CLL cells; conditions: read-out: CLL Inhibition EC50; CLL survival; MTT, 48 hours
Report only the number, with the unit µM understood.

Use the examples below as a reference point.
| Smiles Record | Measurement Units | EC50 |
| --- | --- | --- |
| C=C(CC)C(=O)c1ccc(OCC(=O)Nc2nc3ccccc3s2)c(Cl)c1Cl | µM | 1.5 |
| C=C(CC)C(=O)c1ccc(OCC(=O)NCCc2c[nH]c3ccccc23)c(Cl)c1Cl | µM | 5.9 |

Attention now shifts to the item below.
What does the record list as EC50 for `C=C(CC)C(=O)c1ccc(OCC(=O)NCCCN2CCCC2=O)c(Cl)c1Cl` ? 13.8

----------
system: Wnt signaling; assay: CellSensor LEF/TCF-bla SW480 cell-based assay (Wnt signaling inhibition); design: species or system human; settings: LEF/TCF-bla SW480 cells, 20 hours
# label = T if IC50 < 7 µM else F

Sample answers from the record:
| Compound | Assayed System | Cat |
| --- | --- | --- |
| C=C(CC)C(=O)c1ccc(OCC(=O)Nc2ccc(C=CC(=O)OCC)cc2)c(Cl)c1Cl | Wnt signaling | T |
| C=C(CC)C(=O)c1ccc(OCC(=O)Nc2nc(C(=NOC)C(=O)O)cs2)c(Cl)c1Cl | Wnt signaling | F |
| C=C(CC)C(=O)c1ccc(OCC(=O)NO)c(Cl)c1Cl | Wnt signaling | F |

Bench note: check whether C=C(CC)C(=O)c1ccc(OCC(=O)Nc2ccc(C(=O)NC(CCC(=O)OCC)C(=O)OCC)cc2)c(Cl)c1Cl (stereo not shown) shows IC50 below 7 µM T

Bench note: check whether `C=C(CC)C(=O)c1ccc(OCC(=O)Nc2ccc(C(=O)OC)cc2)c(Cl)c1Cl` shows IC50 below 7 µM F

Bench note: check whether `C=C(CC)C(=O)c1ccc(OCC(=O)Nc2ccc3c(c2)C(=O)NC3=O)c(Cl)c1Cl` shows IC50 below 7 µM T

----------
tested on: B16; test: Cytotoxicity of EA in tumor cell line B16; assay type: cell-based; conditions: Mus musculus, mean of at least two experiments
Metric Name: IC50 (µM)
Report only the number, with the unit µM understood.

What does the record list as IC50 for `C=C(CC)C(=O)c1ccc(OCC(=O)O)c(Cl)c1Cl` ? 201

----------
system: different tumor cell lines; assay: Cytotoxicity of EA in different tumor cell lines (summary); format: cell-based; conditions: read-out: mean 50% inhibitory concentration (IC50) of EA in these cell lines; range over the tumor cell lines of Table 3
Metric Name: IC50

What does the record list as IC50 for `C=C(CC)C(=O)c1ccc(OCC(=O)O)c(Cl)c1Cl` ? 40 to 200 µM

----------
system: Wnt signaling; assay: CellSensor LEF/TCF-bla SW480 cell-based assay (Wnt signaling inhibition); design: species or system human; details: LEF/TCF-bla SW480 cells, 20 hours
Below is a list of entries, each paired with its recorded pIC50 value.
In textbook form, pIC50 equals minus log to base ten of the concentration in mol/L.

| Compound | pIC50 |
| --- | --- |
| C=C(CC)C(=O)c1ccc(OCC(=O)Nc2ccc3[nH]cnc3c2)c(Cl)c1Cl [Compound 29] | 5.44 |

What does the record list as pIC50 for C=C(CC)C(=O)c1ccc(OCC(=O)Nc2ccc(C(=O)O)cc2)c(Cl)c1Cl [Compound 6] ? 5.24

----------
system: A549; assay: Cytotoxicity of EA in tumor cell line A549; format: cell-based; settings: Homo sapiens, mean of at least two experiments
Metric Name: IC50 (µM)
Report only the number, with the unit µM understood.

What does the record list as IC50 for `C=C(CC)C(=O)c1ccc(OCC(=O)O)c(Cl)c1Cl` ? 178

----------
Below is a list of entries, each paired with its recorded EC50 value.
system: Primary CLL cells; assay: Cell viability assay (MTT) with primary CLL cells; settings: read-out: CLL Inhibition EC50; CLL survival; MTT, 48 hours
Report only the number, with the unit µM understood.

Use the examples below as a reference point.
| Compound | Measured Number |
| --- | --- |
| C=C(CC)C(=O)c1ccc(OCC(=O)NC(CS)C(=O)OCC)c(Cl)c1Cl (stereo not drawn) | 4.8 |
| C=C(CC)C(=O)c1ccc(OCC(=O)Nc2ccc(C#N)cc2)c(Cl)c1Cl | 7.8 |
| C=C(CC)C(=O)c1ccc(OCC(=O)Nc2ccc3c(c2)C(=O)NC3=O)c(Cl)c1Cl | 2.5 |
| C=C(CC)C(=O)c1ccc(OCC(=O)Nc2ccc(C(C)=O)cc2)c(Cl)c1Cl | 3.9 |
| C=C(CC)C(=O)c1ccc(OCC(=O)O)c(Cl)c1Cl | 9.9 |

What does the record list as EC50 for C=C(CC)C(=O)c1ccc(OCC(=O)Nc2ccc(Cc3ccc(N4C(=O)C5C6C=CC(C6)C5C4=O)cc3)cc2)c(Cl)c1Cl (stereo not drawn) ? 1.8

----------
test system: Primary CLL cells; test: Cell viability assay (MTT) with primary CLL cells; conditions: read-out: CLL Inhibition EC50; CLL survival; MTT, 48 hours
Metric Name: EC50 (µM)
Report only the number, with the unit µM understood.

| Compound | Assayed System | EC50 / µM |
| --- | --- | --- |
| C=C(CC)C(=O)c1ccc(OCC(=O)Nc2cccc(C(=O)O)c2)c(Cl)c1Cl | Primary CLL cells | 20.6 |
| C=C(CC)C(=O)c1ccc(OCC(=O)Nc2ccc(C(=O)O)cc2)c(Cl)c1Cl | Primary CLL cells | 5 |
| C=C(CC)C(=O)c1ccc(OCC(=O)Nc2ccc3[nH]cnc3c2)c(Cl)c1Cl | Primary CLL cells | 3.2 |
| C=C(CC)C(=O)c1ccc(OCC(=O)Nc2ccc(C(=O)NC(CCC(=O)OCC)C(=O)OCC)cc2)c(Cl)c1Cl (centres unmarked) | Primary CLL cells | 2.1 |
| C=C(CC)C(=O)c1ccc(OCC(=O)Nc2ccc(C(N)=O)cc2)c(Cl)c1Cl | Primary CLL cells | 3.7 |
| C=C(CC)C(=O)c1ccc(OCC(=O)Nc2cc(Cl)ccc2C(=O)O)c(Cl)c1Cl | Primary CLL cells | 13.8 |

Attention now shifts to the item below.
What does the record list as EC50 for `C=C(CC)C(=O)c1ccc(OCC(=O)Nc2ccc(C(=O)O)cn2)c(Cl)c1Cl` ? 14.9
